- System: 598228-144-R-J1-PDC complex spheroid viability
- Assay Notes: Anticancer human tumor 598228-144-R-J1-PDC patient-derived serous endometrial adenocarcinoma cell line growth inhibition [GQUAD]
- Measurement Context: second compound 0.316 µM; first compound 1 µM; hits give low values
Property: viability, T/C (%)
Supply the numeric figure in %, leaving out any unit text.

1. CC1COCCN1c1cc(-c2ccnn2C)c2ccnc(-c3ccn[nH]3)c2n1 (configuration not stated) + Cc1[nH]c2ccc(F)cc2c1-c1nc2c3cccnc3c3ncccc3c2[nH]1 :: 47.2

Exercise: Give recorded viability, T/C with 598228-144-R-J1-PDC complex spheroid viability for the following molecule: CC(=O)O[C@H]1C(=O)[C@@]2(C)[C@H]([C@H](OC(=O)c3ccccc3)[C@]3(O)C[C@H](OC(=O)[C@H](O)[C@@H](NC(=O)c4ccccc4)c4ccccc4)C(C)=C1C3(C)C)[C@]1(OC(C)=O)CO[C@@H]1C[C@@H]2O + Cc1[nH]c2ccc(F)cc2c1-c1nc2c3cccnc3c3ncccc3c2[nH]1
Key: 53.3

----------
- System: 598228-144-R-J1-PDC complex spheroid viability
- Assay Notes: Anticancer human tumor 598228-144-R-J1-PDC cell line growth inhibition [GQUAD]
- Measurement Context: second compound 3.16 µM; first compound 0.0316 µM; hits give low values
Hi! Could you tag entries with viability, T/C below 40% as y, and those at or above as n? Much appreciated.

# count of solved cases: 3
1) O=c1[nH]cc(F)c(=O)[nH]1 + Cc1[nH]c2ccc(F)cc2c1-c1nc2c3cccnc3c3ncccc3c2[nH]1 :: y
2) COc1ncnc(C2CC2)c1-c1ncc2cnn(Cc3ccc(-c4nc(C(F)(F)F)cn4C(C)C)cc3)c2n1 + Cc1[nH]c2ccc(F)cc2c1-c1nc2c3cccnc3c3ncccc3c2[nH]1 :: y
3) CC(C)(O)C1CCC(Nc2ccc3ncc(-c4cccc(C(F)(F)F)c4)n3n2)CC1 (stereo unspecified) + CN(C)c1ccc(Nc2c3ccc(NC(=O)CCN4CCCC4)cc3nc3cc(NC(=O)CCN4CCCC4)ccc23)cc1 :: n

Exercise: Report whether reported viability, T/C is lower than 40% (strictly) for Nc1ccn(C2OC(CO)C(O)C2(F)F)c(=O)n1 (stereo unspecified) + Cc1[nH]c2ccc(F)cc2c1-c1nc2c3cccnc3c3ncccc3c2[nH]1
Key: y

Exercise: Report whether reported viability, T/C is lower than 40% (strictly) for Cc1cccc(N(C)C(=O)C2C(O)CCN2c2nc(C)cc(C(F)(F)F)c2C#N)c1 (stereo unspecified) + Cc1cnc(CNC(=O)c2c(=O)c3ccc(N4CCCN(C)CC4)nc3n3c2sc2ccccc23)cn1
Key: n

----------
- Test system: 598228-144-R-J1-PDC complex spheroid viability
- Assay Notes: Anticancer human tumor 598228-144-R-J1-PDC cell line growth inhibition [GQUAD]
- Measurement Context: second compound 10 µM; first compound 10 µM; hits give low values
compounds and their reported viability, T/C
Supply the numeric figure in %, leaving out any unit text.

# annotated cases, reported viability, T/C shown
1. C=CCn1c(=O)c2cnc(Nc3ccc(N4CCN(C)CC4)cc3)nc2n1-c1cccc(C(C)(C)O)n1 + Cc1[nH]c2ccc(F)cc2c1-c1nc2c3cccnc3c3ncccc3c2[nH]1 :: 57.7
2. CC1COCCN1c1cc(C2(S(C)(=N)=O)CC2)nc(-c2ccnc3[nH]ccc23)n1 (stereo unspecified) + Cc1cnc(CNC(=O)c2c(=O)c3ccc(N4CCCN(C)CC4)nc3n3c2sc2ccccc23)cn1 :: 6
3. O=c1[nH]cc(F)c(=O)[nH]1 + Cc1[nH]c2ccc(F)cc2c1-c1nc2c3cccnc3c3ncccc3c2[nH]1 :: 54.2

Exercise: Query: viability, T/C; subject: Cc1cccc(N(C)C(=O)C2C(O)CCN2c2nc(C)cc(C(F)(F)F)c2C#N)c1 (stereo unspecified) + Cc1[nH]c2ccc(F)cc2c1-c1nc2c3cccnc3c3ncccc3c2[nH]1
Key: 61.6

Exercise: Query: viability, T/C; subject: COc1ccc([C@@H](O)c2cc(-c3ncnc4cc(N5CCOCC5)ccc34)c(F)cc2Cl)nn1 + Cc1cnc(CNC(=O)c2c(=O)c3ccc(N4CCCN(C)CC4)nc3n3c2sc2ccccc23)cn1
Key: 0.26

Exercise: Query: viability, T/C; subject: CC1COCCN1c1cc(C2(O)CC3CCC(C2)O3)c2cnn(-c3ccn[nH]3)c2n1 (stereo unspecified) + Cc1cnc(CNC(=O)c2c(=O)c3ccc(N4CCCN(C)CC4)nc3n3c2sc2ccccc23)cn1
Key: 0.24

----------
compounds and their reported viability, T/C
- System: 598228-144-R-J1-PDC complex spheroid viability
- Assay Notes: Anticancer human tumor 598228-144-R-J1-PDC cell line growth inhibition [GQUAD];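 further: spheroids exposed to the agents for one week before reading; percent of vehicle DMSO control viability so 100% = untreated growth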
- Measurement Context: second compound 3.16 µM; first compound 0.0316 µM; hits give low values

1) Nc1ccn(C2OC(CO)C(O)C2(F)F)c(=O)n1 (stereo not drawn) + CN(C)c1ccc(Nc2c3ccc(NC(=O)CCN4CCCC4)cc3nc3cc(NC(=O)CCN4CCCC4)ccc23)cc1 :: 58.8%
2) COc1cccc2c1C(=O)c1c(O)c3c(c(O)c1C2=O)CC(O)(C(=O)CO)CC3OC1CC(N)C(O)C(C)O1 (stereo not drawn) + Cc1cnc(CNC(=O)c2c(=O)c3ccc(N4CCCN(C)CC4)nc3n3c2sc2ccccc23)cn1 :: 44.3%

Next:
Exercise: Give recorded viability, T/C with 598228-144-R-J1-PDC complex spheroid viability for the following compound: COc1ccc([C@@H](O)c2cc(-c3ncnc4cc(N5CCOCC5)ccc34)c(F)cc2Cl)nn1 + CN(C)c1ccc(Nc2c3ccc(NC(=O)CCN4CCCC4)cc3nc3cc(NC(=O)CCN4CCCC4)ccc23)cc1
Key: 117%

----------
compounds and their reported viability, T/C
- Test system: 598228-144-R-J1-PDC complex spheroid viability
- Assay Notes: Anticancer human tumor 598228-144-R-J1-PDC cell line growth inhibition [GQUAD];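 further: spheroids exposed to the agents for one week before reading; percent of vehicle DMSO control viability so 100% = untreated growth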
- Measurement Context: second compound 3.16 µM; first compound 0.1 µM; hits give low values
- Description: DNA G-quadruplex Stabilizer Agents in Combinations in Complex Spheroids A high-throughput screen of multi-cell type tumor spheroids was designed to identify active combinations of DNA G-quadruplex stabilizer agents and targeted small molecules. […] Compounds. […] If the clinical Cmax for an agent had not been determined, the highest concentration tested was 10 microM. […]

# annotated cases, reported viability, T/C shown
1. Cc1cccc(N(C)C(=O)C2C(O)CCN2c2nc(C)cc(C(F)(F)F)c2C#N)c1 (stereo not drawn) + Cc1cnc(CNC(=O)c2c(=O)c3ccc(N4CCCN(C)CC4)nc3n3c2sc2ccccc23)cn1 :: 58.3%
2. O=C(NO)c1cnc(N2CCN(S(=O)(=O)c3ccc4ccccc4c3)CC2)nc1 + Cc1[nH]c2ccc(F)cc2c1-c1nc2c3cccnc3c3ncccc3c2[nH]1 :: 29.3%

Next:
Exercise: Query: viability, T/C; subject: CC(C)(O)C1CCC(Nc2ccc3ncc(-c4cccc(C(F)(F)F)c4)n3n2)CC1 (stereo not drawn) + Cc1[nH]c2ccc(F)cc2c1-c1nc2c3cccnc3c3ncccc3c2[nH]1
Key: 40.9%

----------
molecules and their reported viability, T/C
- Test system: 598228-144-R-J1-PDC complex spheroid viability
- Assay Notes: Anticancer human tumor 598228-144-R-J1-PDC cell line growth inhibition [GQUAD];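 further: spheroids exposed to the agents for one week before reading; percent of vehicle DMSO control viability so 100% = untreated growth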
- Measurement Context: second compound 3.16 µM; first compound 0.1 µM; hits give low values
Supply the numeric figure in %, leaving out any unit text.

1. Nc1ccn(C2OC(CO)C(O)C2(F)F)c(=O)n1 (configuration not stated) + Cc1[nH]c2ccc(F)cc2c1-c1nc2c3cccnc3c3ncccc3c2[nH]1 :: 36.7

Exercise: Query: viability, T/C; subject: CC(=O)O[C@H]1C(=O)[C@@]2(C)[C@H]([C@H](OC(=O)c3ccccc3)[C@]3(O)C[C@H](OC(=O)[C@H](O)[C@@H](NC(=O)c4ccccc4)c4ccccc4)C(C)=C1C3(C)C)[C@]1(OC(C)=O)CO[C@@H]1C[C@@H]2O + CN(C)c1ccc(Nc2c3ccc(NC(=O)CCN4CCCC4)cc3nc3cc(NC(=O)CCN4CCCC4)ccc23)cc1
Key: 34.6

----------
- System: 598228-144-R-J1-PDC complex spheroid viability
- Assay Notes: Anticancer human tumor 598228-144-R-J1-PDC cell line growth inhibition [GQUAD];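 further: spheroids exposed to the agents for one week before reading; percent of vehicle DMSO control viability so 100% = untreated growth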
- Measurement Context: second compound 0.0316 µM; first compound 0.316 µM; hits give low values
compounds and their reported viability, T/C
Supply the numeric figure in %, leaving out any unit text.

Exercise: Give recorded viability, T/C with 598228-144-R-J1-PDC complex spheroid viability for the following compound: CCc1c2c(nc3ccc(O)cc13)-c1cc3c(c(=O)n1C2)COC(=O)[C@]3(O)CC + Cc1cnc(CNC(=O)c2c(=O)c3ccc(N4CCCN(C)CC4)nc3n3c2sc2ccccc23)cn1
Key: 15.3

Exercise: Give recorded viability, T/C with 598228-144-R-J1-PDC complex spheroid viability for the following compound: CC1COCCN1c1cc(C2(O)CC3CCC(C2)O3)c2cnn(-c3ccn[nH]3)c2n1 (stereo not given) + Cc1cnc(CNC(=O)c2c(=O)c3ccc(N4CCCN(C)CC4)nc3n3c2sc2ccccc23)cn1
Key: 35.8

Exercise: Give recorded viability, T/C with 598228-144-R-J1-PDC complex spheroid viability for the following compound: C#Cc1c(F)ccc2cc(O)cc(-c3ncc4c(N5CC6CCC(C5)N6)nc(OCC56CCCN5CC(F)C6)nc4c3F)c12 (stereo not given) + Cc1cnc(CNC(=O)c2c(=O)c3ccc(N4CCCN(C)CC4)nc3n3c2sc2ccccc23)cn1
Key: 85.6

Exercise: Give recorded viability, T/C with 598228-144-R-J1-PDC complex spheroid viability for the following compound: COc1cccc2c1C(=O)c1c(O)c3c(c(O)c1C2=O)CC(O)(C(=O)CO)CC3OC1CC(N)C(O)C(C)O1 (stereo not given) + Cc1cnc(CNC(=O)c2c(=O)c3ccc(N4CCCN(C)CC4)nc3n3c2sc2ccccc23)cn1
Key: 79.3

Exercise: Give recorded viability, T/C with 598228-144-R-J1-PDC complex spheroid viability for the following compound: COc1cc(C2c3cc4c(cc3C(OC3OC5COC(C)OC5C(O)C3O)C3COC(=O)C23)OCO4)cc(OC)c1O (stereo not given) + CN(C)c1ccc(Nc2c3ccc(NC(=O)CCN4CCCC4)cc3nc3cc(NC(=O)CCN4CCCC4)ccc23)cc1
Key: 75.5
